The reported numbers originate from patent US9365522B2.

Target: ligand binding domain of human ROR gamma (Homo sapiens, UniProt P51449)
Construct: NM_001001523; expressed in transfected cells; host or cells: HEK293T
Sequence (P51449 247-497 isoform P51449-2): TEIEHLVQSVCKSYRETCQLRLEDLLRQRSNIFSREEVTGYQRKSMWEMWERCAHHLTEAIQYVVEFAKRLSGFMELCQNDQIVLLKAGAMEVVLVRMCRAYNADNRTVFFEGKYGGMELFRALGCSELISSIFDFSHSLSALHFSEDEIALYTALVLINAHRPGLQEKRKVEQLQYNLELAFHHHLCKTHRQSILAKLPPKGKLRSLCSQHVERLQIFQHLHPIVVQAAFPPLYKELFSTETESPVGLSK
Test: ROR gamma reporter gene assay (GAL4-RORγ LBD luciferase, Dual-Glo)
Format: cell-based
Details: HEK293T cells transfected with pM-ROR gamma, 8 concentrations 3.5 nM to 10.5 μM, 24 h incubation; read-out: result (pIC50, inhibition of RORγ transcriptional activity) (converted)
Task for the reader: assign each of the following compounds its reported IC50.
Give bare numbers, in pM.

CC(C)(C)OCCN(CC(=O)c1c(Cl)cc(C(F)(F)F)cc1Cl)C(=O)c1cnn([C@H]2CC[C@](C)(C(=O)O)CC2)c1C(F)(F)F    60300
O=C(CN(Cc1ccoc1)C(=O)c1cnn([C@H]2CC[C@H](C(=O)O)CC2)c1C(F)(F)F)c1c(Cl)cncc1Cl    102000
COc1cccc(Cl)c1C(=O)CN(CC1CCC(C)(C)CC1)C(=O)c1cnn([C@H]2CC[C@](C)(C(=O)O)CC2)c1C(F)(F)F    117000
Cc1cc(Cl)c(C(=O)CN(Cc2cc(F)cc(F)c2)C(=O)c2cnn([C@H]3CC[C@H](C(=O)O)CC3)c2C(F)(F)F)c(Cl)c1    4790

Below are some compounds; for each one, tell me its IC50.
1. Cc1cncc(Cl)c1C(=O)CN(CC(C)(C)C)C(=O)c1cnn([C@H]2CC[C@](C)(C(=O)O)CC2)c1C(F)(F)F
2. C[S+](=O)([O-])[C@H]1CC[C@H](n2ncc(C(=O)N(CC(=O)c3c(Cl)cncc3Cl)Cc3ccc(F)cc3)c2C(F)(F)F)CC1
3. O=C(CN(Cc1cc(F)cc(F)c1)C(=O)c1cnn([C@H]2CC[C@H](C(=O)O)CC2)c1C(F)F)c1c(Cl)cncc1Cl
4. O=C(CN(Cc1cc(F)cc(F)c1)C(=O)c1cnn([C@H]2CC[C@H](C(=O)O)CC2)c1C(F)(F)F)c1c(Cl)cncc1Cl
5. Cc1[nH]c2cccc(Cl)c2c1CCN(C(=O)c1cnn([C@H]2CC[C@](C)(C(=O)O)CC2)c1C(F)(F)F)[C@H]1C[C@@H]2[C@H](C1)C2(C)C
6. CC(C)(C)CN(CC(=O)c1c(F)cccc1Cl)C(=O)c1cnn([C@H]2CC[C@](C)(C(=O)O)CC2)c1C(F)(F)F

## Result
1. 79400
2. 141000
3. 70800
4. 44700
5. 28800
6. 66100
